Assignment: determine reported Min Dose (mg/kg) at which deaths occurred for the given compounds.
assay: Oral toxicity in mice (deaths, LD50)
stated_conditions: mice

Give the measured Min Dose (mg/kg) at which deaths occurred of CNCC(O)COc1ccc2c(c1)C(=O)C(C)(C)CC2c1ccc(Cl)c(Cl)c1 (stereo not drawn) [H CO Cl Cl] .
> 100 mg/kg

Also, CN(C)CCOc1ccc2c(c1)C(=O)C(C)(C)CC2c1cccc(C(F)(F)F)c1 (stereo not drawn) [CH2 CH3 CO H CF3] please.
> 100 mg/kg

Then there is this compound:
Report Min Dose (mg/kg) at which deaths occurred for CC1c2cc(OCCN(C)C)ccc2C(c2ccc(Cl)cc2)CC1(C)C (stereo not drawn) [CH2 CH3 CHCH3 Cl H] please.
> 100 mg/kg

Attribution: patent US4322370A
